# Ki measurements, system: Adenosine receptor A3 (Homo sapiens)
# Sequence (P0DMS8 whole entry): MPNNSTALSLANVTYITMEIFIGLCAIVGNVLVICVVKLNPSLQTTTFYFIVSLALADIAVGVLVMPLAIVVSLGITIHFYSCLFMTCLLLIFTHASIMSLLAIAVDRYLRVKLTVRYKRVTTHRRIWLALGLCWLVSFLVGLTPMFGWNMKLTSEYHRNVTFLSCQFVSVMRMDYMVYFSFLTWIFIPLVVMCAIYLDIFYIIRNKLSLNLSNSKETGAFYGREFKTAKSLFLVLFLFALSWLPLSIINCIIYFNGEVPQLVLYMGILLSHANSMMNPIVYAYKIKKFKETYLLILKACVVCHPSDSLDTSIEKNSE
endpoint-name: Ki (µM)

[[record]]
sample_smiles = "CNC(=O)[C@@]12C[C@@H]1[C@@H](n1cnc3c(=O)[nH]cnc31)[C@H](O)[C@@H]2O"
number = 28.8

[[record]]
sample_smiles = "O=P(O)(OC[C@@]12C[C@@H]1[C@@H](n1cnc3c(O)ncnc31)[C@H](O)[C@@H]2O)OP(=O)(O)OC[C@@]12C[C@@H]1[C@@H](n1cnc3c(O)ncnc31)[C@H](O)[C@@H]2O"
number = 21.6

[[record]]
sample_smiles = "CCCCn1c(=O)c2c(ncn2[C@H]2[C@H](O)[C@H](O)[C@]3(CO)C[C@H]23)n(CCCC)c1=O"
number = 4.35

[[record]]
sample_smiles = "Nc1nc(O)c2ncn([C@H]3[C@H](O)[C@H](O)[C@]4(CO)C[C@H]34)c2n1"
number = 20.5


###

test-system: Adenosine receptor A1 (Rattus norvegicus)
Sequence (P25099 whole entry): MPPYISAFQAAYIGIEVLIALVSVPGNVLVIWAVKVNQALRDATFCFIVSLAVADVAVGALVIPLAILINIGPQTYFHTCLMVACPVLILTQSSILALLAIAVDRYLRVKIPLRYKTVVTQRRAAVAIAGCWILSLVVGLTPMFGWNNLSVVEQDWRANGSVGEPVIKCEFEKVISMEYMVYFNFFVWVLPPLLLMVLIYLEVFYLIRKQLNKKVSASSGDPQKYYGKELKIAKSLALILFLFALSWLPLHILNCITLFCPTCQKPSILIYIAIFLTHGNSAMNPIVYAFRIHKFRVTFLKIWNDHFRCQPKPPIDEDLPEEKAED
pKi: −log10 of the molar value.
endpoint-name: pKi

[[record]]
sample_smiles = "CCCCn1c(=O)c2c(ncn2[C@H]2[C@H](O)[C@H](O)[C@]3(C(=O)NC)C[C@H]23)n(CCCC)c1=O"
number = 4.61

